The entries below come with measured log10 of GI50 values attached.
TEST METHOD NOTES: Antiproliferative activity against human HeLa cells after 48 hrs by MTT assay
Assay type: functional
MEASURED METRIC: log10 of GI50 (log10 of the value in µM)

1. O=C1C=C[C@]23CC[N@](Cc4cc(OCc5ccccc5)c(OCc5ccccc5)cc42)[C@H]3C1 :: 0.48
2. O=C1C=CC2(C=C1)CCN(C(=O)C(F)(F)F)Cc1cc(OCc3ccccc3)ccc12 :: 1.20
3. COc1cc2c(cc1OC)C1(C=CC(=O)C=C1)CCN(C(=O)C(F)(F)F)C2 :: 1.92
4. COc1cc2c(cc1OCc1ccccc1)CN(C(=O)C(F)(F)F)CCC21C=CC(=O)C=C1 :: 1.58
5. O=C1C=CC2(C=C1)CCN(C(=O)C(F)(F)F)Cc1c2sc2ccccc12 :: 1.00
6. COc1cc2c(cc1OCc1ccccc1)C1(C=CC(=O)C=C1)CCN(C(=O)C(F)(F)F)C2 :: 1.53
7. O=C1C=C[C@]23CC[N@](Cc4c2ccc2c4OCO2)[C@H]3C1 :: 1.79
8. O=C1C=C[C@]23CC[N@](Cc4cc5c(cc42)OCO5)[C@H]3C1 :: 1.40
9. O=C1C=CC2(C=C1)CCN(C(=O)C(F)(F)F)Cc1cc(OCc3ccccc3)c(OCc3ccccc3)cc12 :: 1.23
10. O=C1C=CC2(C=C1)CCN(C(=O)C(F)(F)F)Cc1cc3c(cc12)OCCO3 :: 1.32
11. C#CCCCC(=O)Oc1cc2c(cc1OC)[C@@]13C=CC(=O)C[C@@H]1[N@](CC3)C2 :: 1.63
12. O=C1C=C[C@]23CC[N@](Cc4cccc(OCc5ccccc5)c42)[C@H]3C1 :: 0.85
13. O=C1C=CC2(C=C1)CCN(C(=O)C(F)(F)F)Cc1cc3c(cc12)OCO3 :: 1.38
14. O=C1C=C[C@]23CC[N@](Cc4ccsc42)[C@H]3C1 :: 0.90
15. O=C1C=C[C@]23CC[N@](Cc4cc5c(cc42)OCCO5)[C@H]3C1 :: 1.11
16. COc1cc2c(cc1OCc1ccccc1)[C@@]13C=CC(=O)C[C@@H]1[N@](CC3)C2 :: 1.23

---

TEST METHOD NOTES: Antiproliferative activity against human HeLa cells after 48 hrs by MTT assay
Type: functional
The entries below come with measured GI50 values attached.
MEASURED METRIC: GI50 (µM)

1) O=C1C=C[C@]23CC[N@](Cc4cscc42)[C@H]3C1 :: 25
2) COc1cc2c(cc1OC(=O)c1ccccc1)C[N@@]1CC[C@@]23C=CC(=O)C[C@H]13 :: 35
3) O=C1C=CC2(C=C1)CCN(C(=O)C(F)(F)F)Cc1cccc(OCc3ccccc3)c12 :: 11
4) O=C1C=C[C@]23CC[N@](Cc4c2sc2ccccc42)[C@H]3C1 :: 8

Every entry's value here was drawn from ChEMBL document CHEMBL3856201.
